Measured parameter: melting point

The examples below pair each entry with its known result.
[[record]]
molecule = "N[C@@H](Cc1c[nH]cn1)C(=O)Cc1ccc(/C=C/c2ccccc2)cc1 (hydrate or solvate)"
result = "195 °C (dec.)"

[[record]]
molecule = "Cc1ccc(-c2ccc(CC(=O)[C@@H](N)Cc3c[nH]cn3)cc2)cc1 (hydrate or solvate)"
result = "203 °C (dec.)"

[[record]]
molecule = "N[C@@H](Cc1c[nH]cn1)C(=O)Cc1ccc(C#Cc2ccc(-c3ccccc3)cc2)cc1 (hydrate or solvate)"
result = "196 °C (dec.)"

[[record]]
molecule = "CCCCCc1ccc(C#Cc2ccc(CC(=O)[C@@H](N)Cc3c[nH]cn3)cc2)cc1 (hydrate or solvate)"
result = "184 °C (dec.)"

[[record]]
molecule = "N[C@@H](Cc1c[nH]cn1)C(=O)Cc1ccc(-c2ccc(Br)cc2)cc1 (hydrate or solvate)"
result = "199 °C (dec.)"


So, COc1ccc(-c2ccc(CC(=O)[C@@H](N)Cc3c[nH]cn3)cc2)cc1 (hydrate or solvate) ? Its melting point was 210 °C (dec.)

So, CCCCc1ccc(-c2ccc(CC(=O)[C@@H](N)Cc3c[nH]cn3)cc2)cc1 (hydrate or solvate) ? Its melting point was 155 °C (dec.)

So, N[C@@H](Cc1c[nH]cn1)C(=O)Cc1ccc(/C=C/c2ccc(-c3ccccc3)cc2)cc1 (hydrate or solvate) ? Its melting point was 200 °C (dec.)

So, N[C@@H](Cc1c[nH]cn1)C(=O)Cc1ccc(-c2ccc(-c3ccccc3)cc2)cc1 (hydrate or solvate) ? Its melting point was 200 °C (dec.)

So, Cc1ccc(C#Cc2ccc(CC(=O)[C@@H](N)Cc3c[nH]cn3)cc2)cc1 (hydrate or solvate) ? Its melting point was 181 °C (dec.)

So, N[C@@H](Cc1c[nH]cn1)C(=O)Cc1ccc(C#Cc2ccccc2)cc1 (hydrate or solvate) ? Its melting point was 194 °C (dec.)

* * *

Hi! I'm sharing some pIC50 results obtained with B. suis histidinol dehydrogenase (Brucella suis biovar 1, UniProt Q8G2R2).
Sequence (Q8G2R2 whole entry, looked up): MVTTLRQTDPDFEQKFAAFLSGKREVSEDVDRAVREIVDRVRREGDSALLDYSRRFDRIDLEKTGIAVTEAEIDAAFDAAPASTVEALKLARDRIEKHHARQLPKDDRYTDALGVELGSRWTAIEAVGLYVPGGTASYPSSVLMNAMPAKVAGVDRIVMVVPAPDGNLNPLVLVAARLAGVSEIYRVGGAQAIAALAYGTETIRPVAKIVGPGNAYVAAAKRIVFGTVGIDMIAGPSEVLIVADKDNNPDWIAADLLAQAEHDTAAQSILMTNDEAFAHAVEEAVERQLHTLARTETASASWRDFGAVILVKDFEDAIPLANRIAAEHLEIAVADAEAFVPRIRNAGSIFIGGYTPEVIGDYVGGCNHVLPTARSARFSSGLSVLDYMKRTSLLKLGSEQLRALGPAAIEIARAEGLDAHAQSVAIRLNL
Just the number, please; pIC50 means minus log10 of the concentration in mol/L.

[[record]]
line_notation = "N[C@@H](Cc1c[nH]cn1)C(=O)Cc1ccc(-c2ccc(Oc3ccccc3)cc2)cc1"
numeric_value = 7.15

[[record]]
line_notation = "N[C@@H](Cc1c[nH]cn1)C(=O)Cc1ccc(-c2ccc(C(F)(F)F)cc2)cc1"
numeric_value = 7.52

[[record]]
line_notation = "CC(C)(C)c1ccc(C#Cc2ccc(CC(=O)[C@@H](N)Cc3c[nH]cn3)cc2)cc1"
numeric_value = 7.19

[[record]]
line_notation = "COc1ccc(-c2ccc(CC(=O)[C@@H](N)Cc3c[nH]cn3)cc2)cc1"
numeric_value = 7.70

[[record]]
line_notation = "Cc1ccc(-c2ccc(CC(=O)[C@@H](N)Cc3c[nH]cn3)cc2)cc1"
numeric_value = 7.52


So, `N[C@@H](Cc1c[nH]cn1)C(=O)Cc1ccc(-c2ccc3ccccc3c2)cc1` ? Its pIC50 was 7.52

So, `N[C@@H](Cc1c[nH]cn1)C(=O)Cc1ccc(CCc2ccccc2)cc1` ? Its pIC50 was 7.89

So, `N[C@@H](Cc1c[nH]cn1)C(=O)Cc1ccc(C#Cc2ccccc2)cc1` ? Its pIC50 was 8.52

So, `Cc1ccc(/C=C/c2ccc(CC(=O)[C@@H](N)Cc3c[nH]cn3)cc2)cc1` ? Its pIC50 was 7.40

So, `N[C@@H](Cc1c[nH]cn1)C(=O)Cc1ccc(/C=C/c2ccc(C(F)(F)F)cc2)cc1` ? Its pIC50 was 7.19

So, `CCCCc1ccc(-c2ccc(CC(=O)[C@@H](N)Cc3c[nH]cn3)cc2)cc1` ? Its pIC50 was 7.40

* * *

Measured parameter: melting point

The examples below pair each entry with its known result.
[[record]]
molecule = "N[C@@H](Cc1c[nH]cn1)C(=O)Cc1ccc(/C=C/c2ccc(C(F)(F)F)cc2)cc1 (hydrate or solvate)"
result = "186 °C (dec.)"

[[record]]
molecule = "N[C@@H](Cc1c[nH]cn1)C(=O)Cc1ccc(/C=C/Cc2ccccc2)cc1 (hydrate or solvate)"
result = "178 to 180 °C"

[[record]]
molecule = "N[C@@H](Cc1c[nH]cn1)C(=O)Cc1ccc(-c2ccc(C(F)(F)F)cc2)cc1 (hydrate or solvate)"
result = "149 °C (dec.)"

[[record]]
molecule = "N[C@@H](Cc1c[nH]cn1)C(=O)Cc1ccc(-c2ccc3ccccc3c2)cc1 (hydrate or solvate)"
result = "205 °C (dec.)"

[[record]]
molecule = "Cc1ccc(/C=C/c2ccc(CC(=O)[C@@H](N)Cc3c[nH]cn3)cc2)cc1 (hydrate or solvate)"
result = "200 °C (dec.)"


So, N[C@@H](Cc1c[nH]cn1)C(=O)Cc1ccc(CCc2ccccc2)cc1 (hydrate or solvate) ? Its melting point was 168 to 170 °C

So, N[C@@H](Cc1c[nH]cn1)C(=O)Cc1ccc(-c2ccc(Oc3ccccc3)cc2)cc1 (hydrate or solvate) ? Its melting point was 198 to 200 °C

* * *

Hi! I'm sharing some IC50 results obtained with B. suis histidinol dehydrogenase (Brucella suis biovar 1, UniProt Q8G2R2).
// note: answer is a bare numeric in nM

The examples below pair each entry with its known result.
[[record]]
line_notation = "N[C@@H](Cc1c[nH]cn1)C(=O)Cc1ccc(/C=C/Cc2ccccc2)cc1"
scale_unit = "nM"
numeric_value = 30

[[record]]
line_notation = "Cc1ccc(C#Cc2ccc(CC(=O)[C@@H](N)Cc3c[nH]cn3)cc2)cc1"
scale_unit = "nM"
numeric_value = 40

[[record]]
line_notation = "CCCCCc1ccc(C#Cc2ccc(CC(=O)[C@@H](N)Cc3c[nH]cn3)cc2)cc1"
scale_unit = "nM"
numeric_value = 8.5


Consider now this further molecule.
Fill in: B. suis histidinol dehydrogenase (Brucella suis biovar 1, UniProt Q8G2R2) IC50 for `N[C@@H](Cc1c[nH]cn1)C(=O)Cc1ccc(/C=C/c2ccccc2)cc1` = 25

Hello, the source for this data is patent US8372871B2, in case you need it.
